target.entity: Ylr278c (UniProt Q05854)
Sequence (Q05854 whole entry): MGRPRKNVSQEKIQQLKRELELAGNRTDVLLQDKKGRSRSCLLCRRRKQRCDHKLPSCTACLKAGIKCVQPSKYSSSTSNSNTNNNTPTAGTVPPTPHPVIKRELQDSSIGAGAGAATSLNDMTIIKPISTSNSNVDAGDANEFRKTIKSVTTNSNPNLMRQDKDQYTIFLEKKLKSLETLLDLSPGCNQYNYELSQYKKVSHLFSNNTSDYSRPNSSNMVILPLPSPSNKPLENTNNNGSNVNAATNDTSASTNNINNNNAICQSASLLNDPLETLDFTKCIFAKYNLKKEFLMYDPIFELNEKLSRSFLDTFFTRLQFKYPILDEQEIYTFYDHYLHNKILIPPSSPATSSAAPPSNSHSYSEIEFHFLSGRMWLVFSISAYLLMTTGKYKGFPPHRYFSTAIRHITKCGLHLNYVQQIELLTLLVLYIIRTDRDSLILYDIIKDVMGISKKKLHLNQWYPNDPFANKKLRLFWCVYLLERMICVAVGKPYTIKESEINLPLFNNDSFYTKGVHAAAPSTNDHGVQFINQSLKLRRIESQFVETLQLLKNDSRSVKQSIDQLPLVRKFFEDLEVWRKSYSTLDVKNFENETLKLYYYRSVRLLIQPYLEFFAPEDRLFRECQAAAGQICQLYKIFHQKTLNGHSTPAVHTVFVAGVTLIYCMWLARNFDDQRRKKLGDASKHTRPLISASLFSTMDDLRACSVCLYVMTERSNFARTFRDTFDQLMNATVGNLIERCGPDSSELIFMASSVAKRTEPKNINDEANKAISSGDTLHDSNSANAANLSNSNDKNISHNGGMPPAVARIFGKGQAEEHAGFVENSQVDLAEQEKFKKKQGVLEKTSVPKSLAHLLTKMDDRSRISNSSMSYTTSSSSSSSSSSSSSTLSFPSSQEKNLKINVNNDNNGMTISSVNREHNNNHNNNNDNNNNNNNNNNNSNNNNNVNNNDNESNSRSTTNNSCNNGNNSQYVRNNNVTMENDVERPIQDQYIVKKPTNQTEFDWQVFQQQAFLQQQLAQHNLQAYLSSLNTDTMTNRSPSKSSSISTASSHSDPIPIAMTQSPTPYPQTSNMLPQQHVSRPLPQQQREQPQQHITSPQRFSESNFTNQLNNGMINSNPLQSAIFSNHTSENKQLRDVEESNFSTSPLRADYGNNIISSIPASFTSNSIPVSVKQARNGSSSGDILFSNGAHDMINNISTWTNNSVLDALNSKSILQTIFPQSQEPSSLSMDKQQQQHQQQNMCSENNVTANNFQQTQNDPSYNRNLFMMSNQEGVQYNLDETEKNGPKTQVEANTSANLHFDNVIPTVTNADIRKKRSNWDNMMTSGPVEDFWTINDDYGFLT
assay.notes: PBM E-score (8-mer binding enrichment) (E-score (-0.5 to 0.5)); higher = stronger / more preferred TF binding
details: protein concentration: 200 nM; construct: GST-DNA-binding domain
The full ranking holds about 33,000 sequences; the median of “E-score (-0.5 to 0.5)” is about -0.054, and the highest 2% start at about 0.39. What follows is part of a selection rich in the highest values, with near analogues and random picks from the rest.
Assign class by PBM E-score: not lower than 0.03 means Yes; lower than 0.03 means No.

The examples below pair each entry with its known result.
macromolecule_sequence=CTCCTTTA group_label=No
macromolecule_sequence=CTTGCAAA group_label=Yes
macromolecule_sequence=CCGAGAAG group_label=Yes

Reported PBM E-score reaches at least 0.03 for `CCGGGAGA` ? Yes

Reported PBM E-score reaches at least 0.03 for `AAGATGGT` ? No

Reported PBM E-score reaches at least 0.03 for `AGAGTCAC` ? No

Reported PBM E-score reaches at least 0.03 for `CCGGGAGG` ? Yes

Reported PBM E-score reaches at least 0.03 for `AATCTCCT` ? Yes

Reported PBM E-score reaches at least 0.03 for `GGCAGCGA` ? Yes

Reported PBM E-score reaches at least 0.03 for `CTCGGAAA` ? Yes

====

PBM E-score values by entry
target.entity: Ylr278c (UniProt Q05854)
assay.notes: PBM E-score (8-mer binding enrichment) (E-score (-0.5 to 0.5)); higher = stronger / more preferred TF binding
details: protein concentration: 200 nM; construct: GST-DNA-binding domain
Over roughly 33,000 sequences, “E-score (-0.5 to 0.5)” has its median near -0.054; the highest 2% begin near 0.39. The full list was thinned out, with the highest values kept by preference.
Give the figure by itself; no unit, no explanation.

In the examples that follow, each entry is paired with its recorded PBM E-score.
macromolecule_sequence=AGCGCGGA result=0.325
macromolecule_sequence=GTCACCCA result=-0.109
macromolecule_sequence=ACTAGTGG result=-0.0388

Indicate its recorded PBM E-score; the sequence in question is `GAGGGAAA` -0.26

Indicate its recorded PBM E-score; the sequence in question is `AGACGCAG` -0.164

====

PBM E-score values by entry
target.entity: Ylr278c (UniProt Q05854)
assay.notes: PBM E-score (8-mer binding enrichment) (E-score (-0.5 to 0.5)); higher = stronger / more preferred TF binding
details: protein concentration: 200 nM; construct: GST-DNA-binding domain
Over roughly 33,000 sequences, “E-score (-0.5 to 0.5)” has its median near -0.054; the highest 2% begin near 0.39. The list comes from a sample in which the highest values are over-represented; it also holds close analogues and randomly drawn sequences.
Give the figure by itself; no unit, no explanation.

macromolecule_sequence=ACAAAAGG target_entity="Ylr278c (UniProt Q05854)" result=0.0804
macromolecule_sequence=CGCTCCCA target_entity="Ylr278c (UniProt Q05854)" result=0.0833
macromolecule_sequence=CCTCCGAG target_entity="Ylr278c (UniProt Q05854)" result=0.426

Please respond with reported PBM E-score (system Ylr278c (UniProt Q05854)) for `TTCGAAAA` . 0.0013

Please respond with reported PBM E-score (system Ylr278c (UniProt Q05854)) for `CTTCGCAC` . -0.164

====

target.entity: Ylr278c (UniProt Q05854)
assay.notes: PBM E-score (8-mer binding enrichment) (E-score (-0.5 to 0.5)); higher = stronger / more preferred TF binding
details: protein concentration: 200 nM; construct: GST-DNA-binding domain
The full ranking holds about 33,000 sequences; the median of “E-score (-0.5 to 0.5)” is about -0.054, and the highest 2% start at about 0.39. Shown is part of a subset that was picked to be rich in the highest values.
PBM E-score values by entry

In the examples that follow, each entry is paired with its recorded PBM E-score.
macromolecule_sequence=CGGCGGCA value_kind="PBM E-score" result=0.281
macromolecule_sequence=ACGCAAAG value_kind="PBM E-score" result=-0.0959
macromolecule_sequence=GGGCGAAC value_kind="PBM E-score" result=0.0496
macromolecule_sequence=CTCCGTAC value_kind="PBM E-score" result=0.358
macromolecule_sequence=GGGCGGAC value_kind="PBM E-score" result=0.399

Next item in the queue.
Indicate its recorded PBM E-score; the sequence in question is `AGGCGGGG` 0.221

====

target.entity: Ylr278c (UniProt Q05854)
assay.notes: PBM E-score (8-mer binding enrichment) (E-score (-0.5 to 0.5)); higher = stronger / more preferred TF binding
details: protein concentration: 200 nM; construct: GST-DNA-binding domain
The full ranking holds about 33,000 sequences; the median of “E-score (-0.5 to 0.5)” is about -0.054, and the highest 2% start at about 0.39. What follows is part of a selection rich in the highest values, with near analogues and random picks from the rest.
value.kind: PBM E-score
Give the figure by itself; no unit, no explanation.

In the examples that follow, each entry is paired with its recorded PBM E-score.
macromolecule_sequence=AGGAGGAG value_kind="PBM E-score" result=-0.212
macromolecule_sequence=CAACTCCC value_kind="PBM E-score" result=0.154

Indicate its recorded PBM E-score; the sequence in question is `GGAGAAAC` 0.309

Indicate its recorded PBM E-score; the sequence in question is `GGCTCCCA` -0.145

Indicate its recorded PBM E-score; the sequence in question is `CGGAGGAA` 0.436

Indicate its recorded PBM E-score; the sequence in question is `AGCTCCTG` -0.0626

Indicate its recorded PBM E-score; the sequence in question is `ATGGCTGG` -0.209

Indicate its recorded PBM E-score; the sequence in question is `AGCTCCCG` 0.0891

Indicate its recorded PBM E-score; the sequence in question is `AGCTCCTC` -0.144

Indicate its recorded PBM E-score; the sequence in question is `CTCCGAAG` 0.479

Indicate its recorded PBM E-score; the sequence in question is `AGGAGGCC` -0.164

Indicate its recorded PBM E-score; the sequence in question is `AGGAGGAC` -0.294

====

target.entity: Ylr278c (UniProt Q05854)
assay.notes: PBM E-score (8-mer binding enrichment) (E-score (-0.5 to 0.5)); higher = stronger / more preferred TF binding
details: protein concentration: 200 nM; construct: GST-DNA-binding domain
In all, about 33,000 sequences were measured (“E-score (-0.5 to 0.5)”: median about -0.054, highest 2% from about 0.39 on). Only a selection was taken, and the highest values are over-represented in it overall.
Assign classes using reported PBM E-score values and the ranges bottom range (below -0.06), center range (-0.06 to below 0.1), top range (0.1 or more), please.

Please indicate the class for `AAGTCCCT` based on its PBM E-score. bottom range

Please indicate the class for `AGAGGCTA` based on its PBM E-score. bottom range

Please indicate the class for `ACCCTTCG` based on its PBM E-score. center range

Please indicate the class for `CGTTCGCC` based on its PBM E-score. top range

Please indicate the class for `CTCCGTTC` based on its PBM E-score. top range

Please indicate the class for `CTCCGTGA` based on its PBM E-score. top range

Please indicate the class for `CACCGTGC` based on its PBM E-score. center range

Please indicate the class for `ATCCGTTC` based on its PBM E-score. top range

Please indicate the class for `ACGTGGAT` based on its PBM E-score. bottom range

Please indicate the class for `CGTATCTC` based on its PBM E-score. top range

====

target.entity: Ylr278c (UniProt Q05854)
assay.notes: PBM E-score (8-mer binding enrichment) (E-score (-0.5 to 0.5)); higher = stronger / more preferred TF binding
details: protein concentration: 200 nM; construct: GST-DNA-binding domain
In all, about 33,000 sequences were measured (“E-score (-0.5 to 0.5)”: median about -0.054, highest 2% from about 0.39 on). Many of the other results were omitted from the sample, so the highest values are more common in it than they were.
value.kind: PBM E-score

In the examples that follow, each entry is paired with its recorded PBM E-score.
macromolecule_sequence=ATGCCGGG result=0.336
macromolecule_sequence=GTGCCGGA result=0.438
macromolecule_sequence=TATTCCGA result=0.453
macromolecule_sequence=TATTCCAA result=-0.177
macromolecule_sequence=AGAACGGA result=0.256

Indicate its recorded PBM E-score; the sequence in question is `GTCACGGA` 0.401

Indicate its recorded PBM E-score; the sequence in question is `GATTCCAA` -0.116

Indicate its recorded PBM E-score; the sequence in question is `TATTCCCA` 0.138

Indicate its recorded PBM E-score; the sequence in question is `GCCGATGA` 0.298

Indicate its recorded PBM E-score; the sequence in question is `CATTTGAG` -0.0532

Indicate its recorded PBM E-score; the sequence in question is `CGTGGGCA` -0.16
